Task for the reader: assign each of the following compounds its reported % of control metabolism (SD, n = 3), raloxifene glucuronide G1.
Tested on: UGT enzymes of human liver microsomes
experimentSummary: Inhibition of raloxifene glucuronidation (G1, G2) in human liver microsomes
Format: biochemical
measurementConditions: G1; inhibitor 100 μM; raloxifene 50 μM, human liver microsomes 250 μg/ml, 15 min

Please tell me: % of control metabolism (SD, n = 3), raloxifene glucuronide G1 of CC/C(=C(/CC)c1ccc(O)cc1)c1ccc(O)cc1 [Diethylstilbestrol, reference compound] , system UGT enzymes of human liver microsomes?
8 (0) %

Next record, please: CCCCCCCCC(=O)NCc1ccc(O)c(OC)c1 [N-Vanillylnonanamide]
48 (1) %

Moving on to CCCCC/C=C\C/C=C\CCCCCCCC(=O)O
101 (8) %

Repeat with O=C1C[C@@H](c2ccc(O)cc2)Oc2cc(O)cc(O)c21
34 (2) %

Record: CCCCCCCCCCCCOC(=O)c1cc(O)c(O)c(O)c1 [Lauryl gallate]
64 (4) %

What would you report for O=C(O[C@@H]1Cc2c(O)cc(O)cc2O[C@@H]1c1cc(O)c(O)c(O)c1)c1cc(O)c(O)c(O)c1 [Epigallocatechin gallate] ?
22 (1) %

Another: COc1c(C)c2c(c(O)c1C/C=C(\C)CCC(=O)O)C(=O)OC2 [Mycophenolic acid, reference compound]
89 (3) %

Record: O=c1c(O)c(-c2ccc(O)c(O)c2)oc2cc(O)cc(O)c12
6 (2) %
